Test: PET hydrolysis, aromatic products released after 48 h (umol product/mg enzyme); higher = more PET depolymerization activity
Conditions: substrate: aFilm; 40 °C; pH 7.5
// PET hydrolysis lookup, one value per entry

Some sequences with recorded PET hydrolysis:
{"columns": ["residue_sequence", "PET hydrolysis"],
 "data": [
  ["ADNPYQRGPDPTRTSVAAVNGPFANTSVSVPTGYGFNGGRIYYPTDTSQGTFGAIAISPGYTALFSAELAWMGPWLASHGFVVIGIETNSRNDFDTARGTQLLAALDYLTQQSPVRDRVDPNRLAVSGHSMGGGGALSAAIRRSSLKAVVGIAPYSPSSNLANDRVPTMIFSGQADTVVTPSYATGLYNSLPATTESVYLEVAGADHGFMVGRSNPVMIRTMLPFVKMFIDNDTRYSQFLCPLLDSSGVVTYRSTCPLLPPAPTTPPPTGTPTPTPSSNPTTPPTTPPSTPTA [ESM061]", "< 3"],
  ["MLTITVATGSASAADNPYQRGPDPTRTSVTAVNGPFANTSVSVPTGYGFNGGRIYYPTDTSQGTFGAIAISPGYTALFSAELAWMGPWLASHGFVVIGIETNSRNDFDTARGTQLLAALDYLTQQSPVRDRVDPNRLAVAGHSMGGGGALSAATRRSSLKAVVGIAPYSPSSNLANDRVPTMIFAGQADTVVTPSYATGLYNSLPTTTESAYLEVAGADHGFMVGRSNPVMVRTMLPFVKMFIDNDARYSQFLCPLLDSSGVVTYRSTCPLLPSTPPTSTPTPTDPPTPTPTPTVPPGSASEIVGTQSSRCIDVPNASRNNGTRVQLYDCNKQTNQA [ESM121]", "< 3"]
]}

The sequence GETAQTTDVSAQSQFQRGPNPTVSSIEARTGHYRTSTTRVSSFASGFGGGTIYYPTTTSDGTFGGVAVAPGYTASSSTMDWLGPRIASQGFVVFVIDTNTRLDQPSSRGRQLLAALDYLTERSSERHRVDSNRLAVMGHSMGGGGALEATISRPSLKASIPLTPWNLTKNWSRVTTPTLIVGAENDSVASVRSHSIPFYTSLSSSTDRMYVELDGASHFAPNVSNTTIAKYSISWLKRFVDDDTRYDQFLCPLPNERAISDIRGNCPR [DP090] showed PET hydrolysis equal to 12

// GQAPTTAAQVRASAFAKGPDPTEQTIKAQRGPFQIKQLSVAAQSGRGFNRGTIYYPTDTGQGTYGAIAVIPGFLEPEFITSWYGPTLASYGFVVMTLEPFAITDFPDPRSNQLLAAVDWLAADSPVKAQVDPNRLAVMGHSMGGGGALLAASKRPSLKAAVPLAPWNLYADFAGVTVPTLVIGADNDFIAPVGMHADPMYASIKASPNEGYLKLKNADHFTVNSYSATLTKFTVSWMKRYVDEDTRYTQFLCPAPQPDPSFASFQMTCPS [TEP173] : PET hydrolysis value = < 3

Reported PET hydrolysis of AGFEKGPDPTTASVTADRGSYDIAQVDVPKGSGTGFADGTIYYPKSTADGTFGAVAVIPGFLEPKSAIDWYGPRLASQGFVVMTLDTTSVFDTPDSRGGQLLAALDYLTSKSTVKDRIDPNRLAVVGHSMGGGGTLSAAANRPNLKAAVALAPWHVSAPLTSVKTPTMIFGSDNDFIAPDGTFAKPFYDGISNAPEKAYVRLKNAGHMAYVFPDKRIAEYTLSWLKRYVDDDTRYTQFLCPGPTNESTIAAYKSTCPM [DP093] : < 3

---

Assay: PET hydrolysis, aromatic products released after 48 h (umol product/mg enzyme); higher = more PET depolymerization activity
Details: substrate: aFilm; 60 °C; pH 8.5
measured_endpoint: PET hydrolysis

What the record says about ADTPYERGPNPSESLIEQRRGNYDIAQRSISRFSSDGFRNGTIYYPTDTSDGKFGVIAISPGYTAGESSIAWLGSRIASFGFVVVTINTTTRYDQPRQRSTQLLAALDHAMNDSVVGPLIDPERQAVMGHSMGGGGALQAAESRPEIDAVVALTPWNLKKNWDGVDAATLIIGAERDTVASVRTHSIPFYESLTQAEQRGYLELRGASHFAPNVSNTTIAKYSIAWMKRYLDNDDRYDQFLNPGPAVGYASGVSDYRLQ [DP003] : PET hydrolysis is < 3

Reported PET hydrolysis for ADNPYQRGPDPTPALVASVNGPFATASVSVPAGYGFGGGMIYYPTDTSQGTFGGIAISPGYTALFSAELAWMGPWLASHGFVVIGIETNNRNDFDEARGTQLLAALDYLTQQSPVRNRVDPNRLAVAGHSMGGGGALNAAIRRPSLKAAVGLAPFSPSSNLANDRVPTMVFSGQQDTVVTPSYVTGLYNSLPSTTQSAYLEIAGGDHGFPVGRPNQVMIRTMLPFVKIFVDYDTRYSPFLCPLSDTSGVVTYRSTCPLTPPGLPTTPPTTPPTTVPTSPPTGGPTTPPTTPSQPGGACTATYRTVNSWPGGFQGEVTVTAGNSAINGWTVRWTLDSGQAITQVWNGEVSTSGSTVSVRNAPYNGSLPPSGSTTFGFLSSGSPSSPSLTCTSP [DP059] was < 3

---

Test: PET hydrolysis, aromatic products released after 48 h (umol product/mg enzyme); higher = more PET depolymerization activity
Settings: substrate: cryPow; 40 °C; pH 6.5
Threshold check on PET hydrolysis: at or above 7 gives true (1), strictly below gives false (0).

Example cases with answers are listed next.
{"columns": ["residue_sequence", "class_name"],
 "data": [
  ["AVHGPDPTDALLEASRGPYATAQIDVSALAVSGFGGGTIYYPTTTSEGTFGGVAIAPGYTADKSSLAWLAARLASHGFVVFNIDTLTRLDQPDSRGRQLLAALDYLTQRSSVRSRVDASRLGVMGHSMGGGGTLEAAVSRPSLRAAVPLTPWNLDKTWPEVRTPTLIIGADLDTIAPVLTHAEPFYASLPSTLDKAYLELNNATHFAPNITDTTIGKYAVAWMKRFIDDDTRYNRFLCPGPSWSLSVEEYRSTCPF [TEP061]", "false (0)"],
  ["AAGYERGPNPTSSALEATRGPFSVASTNVSSLSASGFGGGTIYYPTDTSQGTFGGVVIAPGYTASKSSMAWLAERLASHGFVVFNIDTITRSDQPDSRGRQILAAADHLAEESSSTVRRRLDASRIGVMGHSMGGGGTLAAADSRPSLKAAVPLTPWHLDKSWGNVRVPTMIIGAENDTIAAVGSHSEPFYNSLSAAPEKAYLELNGASHFAPNSDNDTIAKYGISWMKRFVDEDTRYDQFLCPAPGRSTTIEEYRSSCPHS [DP086]", "false (0)"],
  ["AQENPYERGPAPTAQNITEDGPFAYATATVPAQSGFAGGAIYYPTDTSQGTFGAVAAVPGFLTPVDDVAWMGPRLASHGFVVFTIEPNSRFEFPSGRAAALKAGLTYLTQSSAVRDRVDPTRLAVAGHSMGGGAALEAALKDPNLKAAVALQPWHTGVNFSTVNVPSMIVGAENDPIASPASHAEPFYEQIPAASEKAYLNLAGVGHEVGGVVTNDTQSSMMLTWLKRYVDNDTRYEPFMCPGPSGSSVLEYRGTCPG [TEP170]", "false (0)"],
  ["ANPYERGPAPTKASIEATTGYFATAKVTVAKSSVSGFGGGTIYYPTSTTSGTFGAIALVPGFTNVQSAVAWLGPRVASQGFVVFIIDTNSVYDSPDSRGTQLLAALDYLTNTSTVKSRVDATRLGVMGYSMGGGGALSATKTRTSIKASVPMAPYHSTKTWTTVKTPTLIVTGQSDTTAPPASHGLAFYNSLSTSIDKAYMELKGAGHSAPTSANTTIAKYSISWFKRFIDDDTRYDQFLCPNPTDTTISSYKSTCNYS [DP082]", "true (1)"],
  ["CATAGSALVSAPSLSGDGSYEVQTYTDFPDVPEFGAATIYYPVGASEPMGGVAIAPGFTEEQRHIAWWGPRLASHGYAVLVLDTNDRRERPDARADALIAGVTLLRAEGRRRGSPLFGRIDAAKMAIMGHSMGGGGALLAADEHSDLIRAAIPFTPWEPETDLRGISAPTLVLAGAADRVAEVEGHAWRHFSMIPESTPKVYMEIAGGDHYIADTTRGMDLATVGRYAIAWLKLYVDGDEQYRDLIYGEIPPADAAKFSRYVVNP [TEP157]", "false (0)"],
  ["ATGPSSPCSNCTRGPDPTVASLKSATGPYTTAKFSVSGYLKGFGDSTVYYPTNASGKMGAIAVIPGYVSYEDSIKWWGPRLASHGFVVMTMNTSTIYDQPDSRATQLSKALDYMIAQSGSSSSPIYNKVDSTRLGVIGWSMGGGGTLKLSTQRSINAIIPQAPYYAGSNSFNTIKTPALILACGADAVAPVGVHASPFYNRIPGTTPKAYLEIYGGSHFCANSGYPNEDLLGMYGIAWMKRFIDFDSRYSKFLCGPNHTADLNISEYRQNCNY [DP078]", "true (1)"]
]}

In: Reported PET hydrolysis at or above 7? GTTASATTVSGTQAAAAQEYRRGPDPTAQSVEAATGPFAIQQTSVPAGNGFGGGTIYYPTDTSQGTFGAIAISPGWTEDQSAIAWLGPKLASNGFVVMTINNNNAFLDFPDARGTQLLAALDSLTGQSPVAGRIDKNRLAVAGHSMGGGGALRAAATRPEIQAAIPLTPWHLNQDWSSVRVPTLIVGGETDIIASVGAHSEPFYESLTNAPERAYLEMEGQGHFVTNSANPTVGRYVLSWLKRYVDNDTRYEQFLCPAPAPSSVISEYRDSCPGS [DP018]
Out: false (0)
